biological target: GluN1/GluN2A subtype of NMDA receptors (Rattus norvegicus); assay: NMDA receptor subunit selectivity, GluN1/GluN2A in Xenopus oocytes; type: cell-based; settings: 2 min; 10 μM antagonist with 50 μM glutamate and 30 μM glycine, two min; agonists alone = 100%; read-out: GluN2A % Current Remaining
Sequence (Q00959 23-1464, other chains not shown): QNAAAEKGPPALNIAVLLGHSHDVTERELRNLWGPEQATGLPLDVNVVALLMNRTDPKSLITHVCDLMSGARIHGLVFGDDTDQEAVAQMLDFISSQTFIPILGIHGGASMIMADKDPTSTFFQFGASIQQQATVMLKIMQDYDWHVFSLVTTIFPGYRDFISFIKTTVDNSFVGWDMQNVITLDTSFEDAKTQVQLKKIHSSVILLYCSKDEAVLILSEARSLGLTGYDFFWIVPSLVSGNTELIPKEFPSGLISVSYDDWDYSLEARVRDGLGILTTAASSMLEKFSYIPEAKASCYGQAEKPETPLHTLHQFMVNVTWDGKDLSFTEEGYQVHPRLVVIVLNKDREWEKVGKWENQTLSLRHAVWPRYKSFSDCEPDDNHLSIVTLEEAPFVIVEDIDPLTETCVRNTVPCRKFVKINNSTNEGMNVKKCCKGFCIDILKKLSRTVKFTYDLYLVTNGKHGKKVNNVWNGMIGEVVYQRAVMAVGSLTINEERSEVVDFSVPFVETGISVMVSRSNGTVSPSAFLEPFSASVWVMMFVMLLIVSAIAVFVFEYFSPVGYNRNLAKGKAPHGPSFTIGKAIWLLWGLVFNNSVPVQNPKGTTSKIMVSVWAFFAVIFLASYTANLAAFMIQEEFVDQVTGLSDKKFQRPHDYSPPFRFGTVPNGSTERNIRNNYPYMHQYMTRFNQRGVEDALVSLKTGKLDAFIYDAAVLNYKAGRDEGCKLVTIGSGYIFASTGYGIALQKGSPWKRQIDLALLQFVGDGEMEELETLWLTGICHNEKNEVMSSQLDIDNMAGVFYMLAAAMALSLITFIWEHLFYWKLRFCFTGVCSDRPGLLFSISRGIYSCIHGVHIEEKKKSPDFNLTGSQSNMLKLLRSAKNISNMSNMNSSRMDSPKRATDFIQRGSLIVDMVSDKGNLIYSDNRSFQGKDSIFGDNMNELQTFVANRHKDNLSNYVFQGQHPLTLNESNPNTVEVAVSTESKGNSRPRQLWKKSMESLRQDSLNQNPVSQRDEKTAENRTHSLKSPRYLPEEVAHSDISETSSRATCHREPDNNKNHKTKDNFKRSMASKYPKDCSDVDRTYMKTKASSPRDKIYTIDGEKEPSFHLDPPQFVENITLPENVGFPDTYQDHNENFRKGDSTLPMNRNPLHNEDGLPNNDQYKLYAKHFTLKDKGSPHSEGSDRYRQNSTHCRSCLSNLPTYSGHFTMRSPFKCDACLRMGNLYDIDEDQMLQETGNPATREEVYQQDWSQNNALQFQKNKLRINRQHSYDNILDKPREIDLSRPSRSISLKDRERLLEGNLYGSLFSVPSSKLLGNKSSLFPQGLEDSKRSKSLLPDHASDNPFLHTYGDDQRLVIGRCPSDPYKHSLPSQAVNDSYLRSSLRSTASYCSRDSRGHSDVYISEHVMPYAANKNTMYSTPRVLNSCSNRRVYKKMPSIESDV
Entries and their measured remaining activity at 10 µM follow.
readout: remaining activity at 10 µM

[[record]]
smiles_str = "O=C1CCc2cc(OCC3CN(C(=O)n4ccnc4)C3)ccc2N1"
readout = "remaining activity at 10 µM"
value_observed = "102%"

[[record]]
smiles_str = "O=C1CCc2cc(OCC3CCN(C(=O)Nc4ccc(Cl)cc4)CC3)ccc2N1"
readout = "remaining activity at 10 µM"
value_observed = "105%"

[[record]]
smiles_str = "O=C1CCc2cc(OCC3CCN(C(=O)Nc4ccc(C(F)(F)F)cc4)CC3)ccc2N1"
readout = "remaining activity at 10 µM"
value_observed = "98.7%"


----------
molecular target: GluN1/GluN2D subtype of NMDA receptors (Rattus norvegicus, UniProt Q62645); assay: NMDA receptor subunit selectivity, GluN1/GluN2D in Xenopus oocytes; assay type: cell-based; conditions: 2 min; 10 μM antagonist with 50 μM glutamate and 30 μM glycine, two min; agonists alone = 100%; read-out: GluN2D % Current Remaining
Sequence (Q62645 28-1323, other chains not shown): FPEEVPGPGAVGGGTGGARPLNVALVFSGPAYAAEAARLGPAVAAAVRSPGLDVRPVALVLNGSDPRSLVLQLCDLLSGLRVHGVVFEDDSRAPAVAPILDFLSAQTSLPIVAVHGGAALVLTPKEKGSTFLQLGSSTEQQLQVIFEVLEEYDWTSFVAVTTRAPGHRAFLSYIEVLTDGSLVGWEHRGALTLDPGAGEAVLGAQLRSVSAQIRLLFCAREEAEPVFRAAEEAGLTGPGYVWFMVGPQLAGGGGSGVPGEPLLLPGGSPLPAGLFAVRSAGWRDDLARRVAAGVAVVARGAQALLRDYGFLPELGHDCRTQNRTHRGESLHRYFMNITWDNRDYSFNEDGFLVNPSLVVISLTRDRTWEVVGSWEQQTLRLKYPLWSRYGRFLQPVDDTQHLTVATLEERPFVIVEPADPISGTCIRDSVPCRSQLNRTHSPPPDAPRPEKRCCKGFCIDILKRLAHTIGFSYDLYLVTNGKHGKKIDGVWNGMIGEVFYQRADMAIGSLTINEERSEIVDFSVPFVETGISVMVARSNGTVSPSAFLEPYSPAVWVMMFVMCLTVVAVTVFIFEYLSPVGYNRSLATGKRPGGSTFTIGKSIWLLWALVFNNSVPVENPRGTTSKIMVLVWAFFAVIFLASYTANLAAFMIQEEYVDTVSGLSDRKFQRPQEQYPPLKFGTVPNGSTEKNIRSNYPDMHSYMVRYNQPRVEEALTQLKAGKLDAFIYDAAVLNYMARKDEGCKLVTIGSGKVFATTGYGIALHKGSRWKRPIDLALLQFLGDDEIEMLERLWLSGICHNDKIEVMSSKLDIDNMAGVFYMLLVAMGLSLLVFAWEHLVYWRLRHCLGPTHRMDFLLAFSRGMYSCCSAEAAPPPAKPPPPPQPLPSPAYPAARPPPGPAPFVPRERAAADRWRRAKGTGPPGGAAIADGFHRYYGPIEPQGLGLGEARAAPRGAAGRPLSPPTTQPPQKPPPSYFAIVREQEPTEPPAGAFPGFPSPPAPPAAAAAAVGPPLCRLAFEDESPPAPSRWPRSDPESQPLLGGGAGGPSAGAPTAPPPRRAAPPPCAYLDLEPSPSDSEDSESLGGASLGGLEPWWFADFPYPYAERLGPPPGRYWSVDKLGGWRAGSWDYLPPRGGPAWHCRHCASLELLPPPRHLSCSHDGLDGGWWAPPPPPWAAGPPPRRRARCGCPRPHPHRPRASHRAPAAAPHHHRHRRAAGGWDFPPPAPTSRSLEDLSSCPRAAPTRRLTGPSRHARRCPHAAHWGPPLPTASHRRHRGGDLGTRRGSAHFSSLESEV
Entries and their measured remaining activity at 10 µM follow.
readout: remaining activity at 10 µM (%)

[[record]]
molecule = "O=C1CCc2cc(OCC3CCN(C(=O)/C=C/c4ccc(Cl)c(Cl)c4)CC3)ccc2N1 [Compound 6]"
measured_target = "GluN1/GluN2D subtype of NMDA receptors (Rattus norvegicus, UniProt Q62645)"
readout = "remaining activity at 10 µM"
value_observed = 101

[[record]]
molecule = "O=C1CCc2cc(OCC3CCN(C(=O)Nc4ccc(Cl)cc4)CC3)ccc2N1 [Compound 13]"
measured_target = "GluN1/GluN2D subtype of NMDA receptors (Rattus norvegicus, UniProt Q62645)"
readout = "remaining activity at 10 µM"
value_observed = 106

[[record]]
molecule = "O=C(Nc1ccc(Cl)c(Cl)c1)N1CCC(COc2ccc(O)cc2)CC1 [Compound 35]"
measured_target = "GluN1/GluN2D subtype of NMDA receptors (Rattus norvegicus, UniProt Q62645)"
readout = "remaining activity at 10 µM"
value_observed = 104

[[record]]
molecule = "O=C1CCc2cc(OCC3CN(C(=O)Nc4ccc(Cl)c(Cl)c4)C3)ccc2N1 [Compound 23]"
measured_target = "GluN1/GluN2D subtype of NMDA receptors (Rattus norvegicus, UniProt Q62645)"
readout = "remaining activity at 10 µM"
value_observed = 87.6

[[record]]
molecule = "O=C(Nc1ccc(Cl)cc1)N1CCC(COc2ccc(O)cc2)CC1 [Compound 33]"
measured_target = "GluN1/GluN2D subtype of NMDA receptors (Rattus norvegicus, UniProt Q62645)"
readout = "remaining activity at 10 µM"
value_observed = 104

[[record]]
molecule = "O=C1CCc2cc(OCC3CN(C(=O)n4ccnc4)C3)ccc2N1 [Compound 26]"
measured_target = "GluN1/GluN2D subtype of NMDA receptors (Rattus norvegicus, UniProt Q62645)"
readout = "remaining activity at 10 µM"
value_observed = 94.9

[[record]]
molecule = "O=C1CCc2cc(OCC3CCN(C(=O)Nc4ccc(C(F)(F)F)cc4)CC3)ccc2N1 [Compound 17]"
measured_target = "GluN1/GluN2D subtype of NMDA receptors (Rattus norvegicus, UniProt Q62645)"
readout = "remaining activity at 10 µM"
value_observed = 93.9

[[record]]
molecule = "O=C1CCc2cc(OCC3CN(C(=O)NCc4ccc(Cl)cc4)C3)ccc2N1 [Compound 28]"
measured_target = "GluN1/GluN2D subtype of NMDA receptors (Rattus norvegicus, UniProt Q62645)"
readout = "remaining activity at 10 µM"
value_observed = 94.5

